- test-parameters: 298.15 K; 101.33 kPa; Liquid; Vibrating tube method
assay-readout: mass density (kg/m3)

CCCCCCCCC(C)=O
820.63
CCCCCCCCCCCCCC
760.2
CCCCCOCCCCC
779.1
CCCCCCCCCCCCCCCC
770.31
CCCCCCCCCCCC
745.28

Data credit: the NIST ThermoML archive (doi:10.1016/j.jct.2010.11.004)
